# Target under test: NADPH oxidase 2 (Homo sapiens)
# Assay name: NOX2-dependent H2O2 signal modulators, primary screen, NOX inhibitor project, cell-based, HEK293-NOX2, PMA-stimulated, Amplex Red fluorescence (AID 1159); note: test concentration not given here
# Condition notes: 45 min, higher = more signal, called active from +8 up or from −8 down
Class field: derived from z-score; ranges band 1: < -0.5; band 2: ≥ -0.5 and < 0.3; band 3: ≥ 0.3

>>> category("COc1ccc(O[C@H]2C=C[C@@H](c3ccccc3)O[C@@H]2CON=C(C)CCC(=O)OC[C@H]2O[C@H](c3ccccc3)C=C[C@@H]2Oc2ccc(OC)cc2)cc1")
"band 2"
>>> category("COc1ccc(COC(=O)NN=C2C[C@@H](O)[C@@H](O)[C@@H]3[C@@H]4C(=O)N(Cc5ccccc5)C(=O)[C@@H]4CC[C@H]23)cc1")
"band 3"
>>> category("CO[C@H]1COC(=O)CC=C[C@H](C)[C@@H](OC)COC(=O)[C@@H](C)COC(=O)CC=C[C@@H]1C")
"band 1"
>>> category("CC(C)CCN1CCc2nc(COc3ccccc3)c3c(c2C1)CO[C@@H](C)C3")
"band 3"
>>> category("CO[C@H]1COC(=O)CC=C[C@H](C)[C@@H](OC)COC(=O)[C@H](C)COC(=O)CC=C[C@@H]1C")
"band 2"
>>> category("Cn1c(=O)n2n(c1=O)[C@H]1[C@H](O)[C@@H]3O[C@@H]3C(=NOCc3ccccc3)[C@H]1CC2")
"band 2"
>>> category("CC(C)CON=C1C[C@@H](O)[C@@H](O)[C@@H]2[C@@H]3C(=O)N(c4cccc(Oc5ccccc5)c4)C(=O)[C@@H]3CC[C@@H]12")
"band 2"
>>> category("C[C@H]1COC(=O)[C@@H]2CCCN2C(=O)[C@@H](C)COC(=O)[C@H](Cc2ccccc2)NC1=O")
"band 2"
>>> category("O=C1[C@H]2[C@H]3[C@H](O)[C@H](O)CC(=NOCc4ccccc4)[C@H]3CC[C@H]2C(=O)N1Cc1ccc2c(c1)OCO2")
"band 3"
>>> category("CCOC(=O)[C@H](CC(C)C)NC(=O)CCC1CC(OC(=O)NCc2ccc3c(c2)OCO3)CC2(CCCC(COC(=O)NCC3CCCCC3)O2)O1 (stereo not given in full)")
"band 1"
>>> category("O=C(NN=C1C[C@@H](O)[C@@H](O)[C@@H]2[C@@H]3C(=O)N(C4CCCCC4)C(=O)[C@@H]3CC[C@H]12)OCc1ccccc1")
"band 2"
>>> category("C#CCCCON=C1C[C@@H](O)[C@@H](O)[C@@H]2[C@@H]3C(=O)N(c4cccc(Oc5ccccc5)c4)C(=O)[C@@H]3CC[C@H]12")
"band 1"
>>> category("C#CCCCON=C1C[C@@H](O)[C@@H](O)[C@@H]2[C@@H]3C(=O)N(C(C)(C)C)C(=O)[C@@H]3CC[C@H]12")
"band 1"
>>> category("Cc1cc2c(nc1C)CCCCN2CC(C)ON=C1[C@H]2CCn3c(=O)n(-c4ccccc4)c(=O)n3[C@H]2[C@H](O)[C@@H]2O[C@H]12 (stereo not given in full)")
"band 1"
>>> category("COc1cccc([C@H]2Oc3ccc(OC)cc3C(=NOC[C@@H](O)COCc3ccco3)[C@@H]2O)c1")
"band 2"
>>> category("CC(C)=CCCC(C)=CCON=C1C[C@@H](O)[C@@H](O)[C@@H]2[C@@H]3C(=O)N(C(C)(C)C)C(=O)[C@@H]3CC[C@@H]12")
"band 1"
>>> category("CO[C@H]1COC(=O)[C@@H]2CCCN2C(=O)CC=C[C@@H](C)[C@H](OC)COC(=O)[C@@H](OCc2ccccc2)C=C[C@@H]1C")
"band 2"
>>> category("CCOC(=O)[C@H](Cc1ccccc1)NC(=O)CCC1CC(OC(=O)NCCc2ccc(F)cc2)CC2(CCCC(COC(=O)NCCOC)O2)O1 (stereo not given in full)")
"band 2"
>>> category("CC(=O)Nc1ccc([C@@H]2N[C@H](C(=O)O)CC[C@H]2C)cc1")
"band 2"
>>> category("O=C(C=Cc1ccc2c(c1)OCO2)c1ccc(F)cc1")
"band 3"
>>> category("O=C(NN=C1C[C@@H](O)[C@@H](O)[C@@H]2[C@@H]3C(=O)N(Cc4ccccc4)C(=O)[C@@H]3CC[C@@H]12)OCc1ccccc1")
"band 1"
>>> category("C#CCCCON=C1C[C@@H](O)[C@@H](O)[C@@H]2[C@@H]3C(=O)N(CCC(=O)OCC)C(=O)[C@@H]3CC[C@H]12")
"band 1"
>>> category("Cc1ccc(S(=O)(=O)N[C@H]2COC(=O)CC=C[C@@H](C)COC(=O)CC=C[C@@H]2C)cc1")
"band 2"
>>> category("CO[C@H]1COC(=O)CC=C[C@H](C)COC(=O)[C@@H](C)NC(=O)CC=C[C@@H]1C")
"band 2"
>>> category("CO[C@H]1COC(=O)CC=C[C@@H](C)[C@H](OC)COC(=O)[C@@H]2CCCN2C(=O)CC=C[C@@H]1C")
"band 3"
>>> category("CC(C)=NO[C@H](C)c1cn([C@H](CO)Cc2ccccc2)nn1")
"band 3"
>>> category("CCOC(=O)[C@H](CC(C)C)NC(=O)CCC1CC(OC(=O)NCCc2ccc(F)cc2)CC2(CCCC(COC(=O)NCCOc3ccccc3)O2)O1 (stereo not given in full)")
"band 3"
>>> category("CCOC(=O)[C@H](CC(C)C)NC(=O)CCC1CC(OC(=O)NCc2cccc3ccccc23)CC2(CCCC(COC(=O)NCCOC)O2)O1 (stereo not given in full)")
"band 3"
>>> category("CCOC(=O)[C@H](CC(C)C)NC(=O)CCC1CC(OC(=O)NCc2cccc3ccccc23)CC2(CCCC(COC(=O)NCC3CCCCC3)O2)O1 (stereo not given in full)")
"band 1"
>>> category("CC(CCN1CCCCc2nc(C)c(C)cc21)=NO[C@@H](C)c1cn([C@H](CO)Cc2ccccc2)nn1")
"band 1"
